Taken from the supplement of paper PMC10681739.

Overview of reported RUNX1 binding intensity across a group of sequences:
Target: RUNX1 (UniProt Q01196)
Sequence (Q01196 whole entry): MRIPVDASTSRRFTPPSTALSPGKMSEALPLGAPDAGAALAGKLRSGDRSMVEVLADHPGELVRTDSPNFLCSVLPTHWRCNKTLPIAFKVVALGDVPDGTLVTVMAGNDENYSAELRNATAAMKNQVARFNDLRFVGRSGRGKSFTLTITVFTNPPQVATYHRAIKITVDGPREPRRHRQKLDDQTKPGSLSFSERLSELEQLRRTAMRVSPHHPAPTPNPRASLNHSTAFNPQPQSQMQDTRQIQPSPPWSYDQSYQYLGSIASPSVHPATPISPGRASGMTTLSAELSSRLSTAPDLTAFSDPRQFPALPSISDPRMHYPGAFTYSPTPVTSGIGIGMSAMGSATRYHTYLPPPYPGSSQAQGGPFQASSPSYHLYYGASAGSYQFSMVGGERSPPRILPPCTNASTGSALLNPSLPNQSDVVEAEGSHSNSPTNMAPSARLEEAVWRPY
Assay: RUNX1 binding intensity (PBM fluorescence), RUNX1 alone (arbitrary fluorescence units); higher = stronger binding
Conditions: RUNX1 concentration 2 nM; ETS1 concentration 0 nM
Number, no unit, nothing else.

# ordered.residues, value.measured
rows = [
    ("CAGAGGAAGCCCACCCCATAAAAGAACCACAGATAA", 1010),
    ("CCAAGTGTAAAACGGAAGCTCAACCACGAATCTTAC", 800),
    ("CAGCGGAAGAAAGACCTGCCACCTCCACCACAAAGA", 1000),
    ("CATAGACCGGATGCCTCGTCAACCACAGAAACCAAT", 1000),
    ("AGGCTGTGTGAAGGATGTGGTCAGGCGGAGGCCAGG", 921),
    ("ATCCCACTATAGGAAGCTTCTCTGTGGTTTTGAGCC", 1370),
    ("GCCGCGAGTTCCGCCGGGTGGACCACAAATCCCGAG", 831),
    ("GCACTCGGATGTTGGCCGTAGTTGTGGTTATAGTTG", 1010),
    ("AGGGAACAGGAAATGCAAAAAACCACAAGGGACAAG", 2050),
    ("TGCGCGCCGGCTTCCGCTGCGGCCAGTCGGGCGGCG", 647),
]

In: Provide measured RUNX1 binding intensity value, entry: GAGACTTTCGCTTCCGGCTGCCGCAGGCGCTTCGCT
Out: 710

In: Provide measured RUNX1 binding intensity value, entry: TGGGTACTTCCTGTGACAAATCGAGTTGACCACATG
Out: 678

----------
Biological target: ETS1 (UniProt P14921)
Sequence: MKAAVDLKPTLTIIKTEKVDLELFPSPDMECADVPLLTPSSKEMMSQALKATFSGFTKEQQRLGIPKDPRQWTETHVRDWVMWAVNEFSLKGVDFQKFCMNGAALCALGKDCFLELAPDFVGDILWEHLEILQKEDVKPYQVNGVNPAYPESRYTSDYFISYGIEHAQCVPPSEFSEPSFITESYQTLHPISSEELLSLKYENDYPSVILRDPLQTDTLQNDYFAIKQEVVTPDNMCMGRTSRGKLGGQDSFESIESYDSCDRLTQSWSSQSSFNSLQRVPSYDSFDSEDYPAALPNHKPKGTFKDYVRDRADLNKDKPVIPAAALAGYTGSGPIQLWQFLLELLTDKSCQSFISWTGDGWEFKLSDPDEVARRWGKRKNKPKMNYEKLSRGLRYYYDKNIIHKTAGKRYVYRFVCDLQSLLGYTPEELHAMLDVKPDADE
Assay: ETS1 binding intensity (PBM fluorescence) in presence of RUNX1, normalised to ETS1-only experiment (arbitrary fluorescence units); higher = stronger binding
Conditions: ETS1 concentration 1 nM; RUNX1 concentration 25 nM
Overview of reported ETS1 binding intensity across a group of sequences:

Example sequences with recorded ETS1 binding intensity:
# ordered.residues, parameter.measured, value.measured
records = [
    ("CCACTGCTTCCGCCTTCTCTGCTGGCTGCGGGGAGC", "ETS1 binding intensity", 516),
    ("AGACGGGACCGGAAGCCGGGCCGCAGGCGGCCGGGC", "ETS1 binding intensity", 6650),
    ("GAGATACACAGCGACATCCGCCCGCAAGAGCATGGT", "ETS1 binding intensity", 1090),
]

In: // output ETS1 binding intensity; input CCCTCATCTTCCTGCTTCAGGCAGCTGTGGTTTACC ; system ETS1 (UniProt P14921)
Out: 1550

In: // output ETS1 binding intensity; input GGACTTCCTGAACTGGGAGGTCACCGACCACAACCT ; system ETS1 (UniProt P14921)
Out: 671

In: // output ETS1 binding intensity; input TAAGGATGTGTGGCTTCCAGATCAAAAACCGCAAAA ; system ETS1 (UniProt P14921)
Out: 3920

In: // output ETS1 binding intensity; input TTTCCACTTCCTGTTCTACTTGTGGCTACTGACTCA ; system ETS1 (UniProt P14921)
Out: 2890

In: // output ETS1 binding intensity; input GCCGTCACTTCCGTCATTCAAACCGCCCGCCAATGG ; system ETS1 (UniProt P14921)
Out: 1160

In: // output ETS1 binding intensity; input GTCGGAAGTGGCCGTGAGCCCAAGCCGCGGTCCCGG ; system ETS1 (UniProt P14921)
Out: 486

In: // output ETS1 binding intensity; input AGCTTGCGCAGGAAGTCTGCGGCAGGAGGGCGTCCT ; system ETS1 (UniProt P14921)
Out: 2760

In: // output ETS1 binding intensity; input TGCGCGCCGGCTTCCGCTGCGGCCAGTCGGGCGGCG ; system ETS1 (UniProt P14921)
Out: 635

In: // output ETS1 binding intensity; input GTTTGAAGGGAAGTGGGTGTTGACCTGCGGGCAACT ; system ETS1 (UniProt P14921)
Out: 948

In: // output ETS1 binding intensity; input CCGGGCTGCGGAAGGCGGGAATTCTGCGGTTCGCGG ; system ETS1 (UniProt P14921)
Out: 1990

In: // output ETS1 binding intensity; input TACTTCTTCCTGGCAGAGACCGGGAGTGCGGTCCGC ; system ETS1 (UniProt P14921)
Out: 588

In: // output ETS1 binding intensity; input TCCAGGCATTTCCCCCATGTTGGCTCACCGCACTAT ; system ETS1 (UniProt P14921)
Out: 594

In: // output ETS1 binding intensity; input CTCGGAGCGGAACTACTAGGGTGGTTTCTCCTGAGG ; system ETS1 (UniProt P14921)
Out: 336

In: // output ETS1 binding intensity; input CTTAAATGGGAAATGTAGGTGTGGTTAAGTCACAAA ; system ETS1 (UniProt P14921)
Out: 556

In: // output ETS1 binding intensity; input AGAAGCTTCTACAGGAAACCACTAATGGAGACAGAG ; system ETS1 (UniProt P14921)
Out: 1970

In: // output ETS1 binding intensity; input AAAAAATGGAGGAAGTTACCTCCAGTGGTTTTGTGA ; system ETS1 (UniProt P14921)
Out: 1310

In: // output ETS1 binding intensity; input GCCCCCGGCTGGGCAGGATGTGGTGGCAGCTGCAGG ; system ETS1 (UniProt P14921)
Out: 5380

In: // output ETS1 binding intensity; input CCCCGCGGAACTCTGGCACAGTCAGCTGACCGCAGA ; system ETS1 (UniProt P14921)
Out: 2000

In: // output ETS1 binding intensity; input CTCTTCCTGCCTGTCCGTGGCTGGTGTGGTTTGCGT ; system ETS1 (UniProt P14921)
Out: 616

In: // output ETS1 binding intensity; input ACCTCTCTCACTTCCTACCAGAGAACCACAGCCAAG ; system ETS1 (UniProt P14921)
Out: 404

In: // output ETS1 binding intensity; input TCCTAGCCATTTCCTATCCACCCTGTGGCTAATTTG ; system ETS1 (UniProt P14921)
Out: 476

In: // output ETS1 binding intensity; input GCTGTGCCGGCAGGATGTGGTCTTTGGTTTCTGTTT ; system ETS1 (UniProt P14921)
Out: 12300

----------
Molecular target: ETS1 (UniProt P14921)
Sequence: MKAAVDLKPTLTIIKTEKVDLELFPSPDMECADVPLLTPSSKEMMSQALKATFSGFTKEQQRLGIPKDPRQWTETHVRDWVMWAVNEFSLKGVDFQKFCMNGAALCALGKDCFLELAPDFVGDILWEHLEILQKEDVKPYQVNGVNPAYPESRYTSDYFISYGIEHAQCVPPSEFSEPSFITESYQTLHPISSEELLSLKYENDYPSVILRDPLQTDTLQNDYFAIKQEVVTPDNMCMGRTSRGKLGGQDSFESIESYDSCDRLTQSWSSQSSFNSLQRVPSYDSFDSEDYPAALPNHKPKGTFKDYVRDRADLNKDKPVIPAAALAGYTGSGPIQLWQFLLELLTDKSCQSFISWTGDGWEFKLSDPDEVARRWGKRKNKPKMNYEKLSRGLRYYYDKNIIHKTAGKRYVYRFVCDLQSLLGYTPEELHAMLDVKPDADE
Test: ETS1 binding intensity (PBM fluorescence), ETS1 alone (arbitrary fluorescence units); higher = stronger binding
Details: ETS1 concentration 1 nM; RUNX1 concentration 0 nM
Note that class boundaries on ETS1 binding intensity are class 0 = under 700, class 1 = from 700 up to 1000, class 2 = 1000 and over

In: Which of the defined bands does the recorded ETS1 binding intensity of GAGGACTTCCGGGTGGGTGTGATATCTGCGGGCCCG sit within?
Out: class 1

In: Which of the defined bands does the recorded ETS1 binding intensity of ACTGAACAAACCGGATGTGGTTCCCACCTGCAATCT sit within?
Out: class 2

In: Which of the defined bands does the recorded ETS1 binding intensity of CTAGGGAGAGGATGTGAGTTTGTCTGTGGGGGTGGT sit within?
Out: class 1

In: Which of the defined bands does the recorded ETS1 binding intensity of CTCCACCGGATGCAGCAATGAAGGCCGCAGGAATGG sit within?
Out: class 2

In: Which of the defined bands does the recorded ETS1 binding intensity of CAGACCAGCCCAGGAAACAAGGAACCACAAAGCCAC sit within?
Out: class 0
